- test-target: S1P1 E^121A mutant (Homo sapiens, UniProt P21453, E121A)
- Assay type: cell-based
- condition-set: mean EC50, activation of p42/p44 MAPK, E^121A, without W146
recorded-endpoint: pEC50
To interpret pEC50, take it as minus log10 of a concentration measured in moles per litre.

# lookup: pEC50 of CCOc1ccc(-c2nc(-c3cccc4c3CCC4NCCO)no2)cc1OCC (stereo not shown)
6.87

---

- measurement-protocol: Pharmacokinetics in Sprague Dawley rats
- Assay type: in vivo
- condition-set: Sprague Dawley, rat, plasma, iv, 1 mg/kg, half-life (t1/2)
recorded-endpoint: half-life (min)
# value in min; strip the unit string

# lookup: half-life of CCOc1ccc(-c2nc(-c3cccc4c3CCC4NCCO)no2)cc1OCC (stereo not shown)
50
